Below are IC50 values recorded for Lysine-specific histone demethylase 1A (Homo sapiens).
Field: numeric (µM). Do not append units.

CN(CCN(C)C1CC1c1ccccc1)C(=O)Nc1ccccc1NC(=O)c1ccc(CNC(=O)OCc2cccnc2)cc1 (configuration not stated)
50.3

Next, consider the following compound.
IN: Report value only: IC50, Lysine-specific histone demethylase 1A (Homo sapiens), CN(CCN(C)C1CC1c1ccccc1)C(=O)Oc1ccc(COC(=O)Nc2ccccc2NC(=O)c2ccc(CNC(=O)OCc3cccnc3)cc2)cc1 (configuration not stated)
OUT: 0.626

---

- procedure_summary: in vitro
- assay_conditions: human, PrEC cells
- Description: Cytotoxicity against human PrEC cells incubated for 3 days by alamar blue assay
result_type: GI50 at 72 h (µM)
Field: numeric (µM). Do not append units.

IN: Determine its reported GI50 at 72 h: "Nc1ccccc1NC(=O)c1ccc(CNC(=O)OCc2cccnc2)cc1"
OUT: 2.23
